- TESTED_ON: Human CaV2.2 channels (Homo sapiens)
- Construct: expressed in transfected cells
- EXPERIMENTAL_DETAILS: Fluorescent assay for CaV2.2 channels using potassium depolarization to induce channel opening (FLIPR, Fluo-4)
- Assay type: cell-based
- CONDITION_DETAILS: 3 μM test compound, 30 mM KCl, HEK293 cells stably expressing human CaV2.2; read-out: %-Inhib (CaV2.2) @3 μM @30 mM KCl
METRIC: inhibition at 3 µM

Task: Respond only with inhibition at 3 µM recorded for `O=C(c1c(-c2ccc(Cl)cc2)cc(C(F)(F)F)n1Cc1cccc(Cl)c1)N1CCOCC1`
Result: > 95%

Task: Quick one: give measured inhibition at 3 µM for `Cc1c(-c2ccc(F)cc2)c(C(=O)N(C)C2CC2)n(Cc2ccccc2)c1C(F)(F)F`
Result: > 95%

Task: Name the recorded inhibition at 3 µM of the compound listed here: `Cc1c(-c2ccc(Cl)cc2)c(C(=O)N(C)C2CCOCC2)n(Cc2ccccc2)c1C(F)(F)F`
Result: > 95%

Task: Provide only the value of recorded inhibition at 3 µM for `CNC(=O)c1c(-c2ccc(Cl)cc2)c(C)c(C(F)(F)F)n1Cc1ccccc1`
Result: 75 to 95%

Task: # return recorded inhibition at 3 µM for entry CC(CS(C)(=O)=O)N(C)C(=O)c1c(-c2ccc(Cl)cc2)cc(C(F)(F)F)n1Cc1ccccc1 (stereo not shown)
Result: > 95%

Task: Quickly give me recorded inhibition at 3 µM for `Cc1c(-c2ccc(Cl)cc2F)c(C(=O)N(C)CC(C)(C)S(C)(=O)=O)n(Cc2ccccc2)c1C(F)(F)F`
Result: > 95%

Task: Could you please provide reported inhibition at 3 µM for `Cc1c(-c2ccc(Cl)cc2)c(C(=O)NC(C)C)n(Cc2ccccc2)c1C(F)(F)F` ? Thanks!
Result: 75 to 95%

Task: Specify measured inhibition at 3 µM for Cc1c(-c2ccc(Cl)cc2F)c(C(=O)N(C)CC2CCOC2)n(Cc2ccccc2)c1C(F)(F)F (stereo not shown) .
Result: > 95%

Task: Answer with the recorded inhibition at 3 µM of `Cc1c(-c2ccc(OCC(F)(F)F)cc2)c(C(=O)N(C)CC(C)(C)C)n(Cc2ccccc2)c1C(F)(F)F` only.
Result: 40 to 75%

Task: Fill in inhibition at 3 µM for record `Cc1c(-c2ccc(Cl)cc2)c(C(=O)N2CCNC(=O)C2)n(Cc2cccc(Cl)c2)c1C(F)(F)F`
Result: > 95%

Task: Look up and state reported inhibition at 3 µM for `Cc1c(-c2ccc(Cl)cc2)c(C(=O)N2CCNC(C)(C)C2)n(Cc2ccccc2)c1C(F)(F)F`
Result: > 95%

Task: Supply reported inhibition at 3 µM belonging to this compound: `O=C(c1c(-c2ccc(Cl)cc2)cc(C(F)(F)F)n1Cc1ccccc1)N1CCn2ccnc2C1`
Result: > 95%

Task: Tell me inhibition at 3 µM reported for `Cc1c(-c2ccc(Cl)cc2)c(C(=O)N(C)CCCS(C)(=O)=O)n(Cc2ccccc2)c1C(F)(F)F`
Result: > 95%

Task: Provide only the value of recorded inhibition at 3 µM for `Cc1c(-c2ccc(Cl)cc2)c(C(=O)N(C)C2CC2)n(Cc2ccccc2)c1C(F)(F)F`
Result: > 95%

Task: Complete the entry with inhibition at 3 µM for `Cc1c(-c2ccc(Cl)c(F)c2)c(C(=O)N2CC(F)(F)C2)n(Cc2ccccc2)c1C(F)(F)F`
Result: 40 to 75%

Task: Give reported inhibition at 3 µM value for Cc1c(-c2ccc(Cl)cc2)c(C(=O)N(C)CC2CCOC2)n(Cc2ccccc2)c1C(F)(F)F (stereo not shown)
Result: > 95%

---

Would you kindly list inhibition at 3 µM for each of these compounds?
- TESTED_ON: Human CaV2.2 channels (Homo sapiens)
- Construct: expressed in transfected cells
- EXPERIMENTAL_DETAILS: Fluorescent assay for CaV2.2 channels using potassium depolarization to induce channel opening (FLIPR, Fluo-4)
- Type: cell-based
- CONDITION_DETAILS: 3 μM test compound, 30 mM KCl, HEK293 cells stably expressing human CaV2.2; read-out: %-Inhib (CaV2.2) @3 μM @30 mM KCl

Task: State its inhibition at 3 µM: `Cc1c(-c2ccc(Cl)cc2)c(C(=O)N2CC(O)C2)n(Cc2ccccc2)c1C(F)(F)F`
Result: 75 to 95%

Task: Write down inhibition at 3 µM measured for item `CC(C)NC(=O)c1c(-c2ccc(Cl)cc2)cc(C(F)(F)F)n1Cc1ccccc1`
Result: 75 to 95%

Task: Input CN(C(=O)c1c(-c2ccc(Cl)cc2)cc(C(F)(F)F)n1Cc1ccccc1)C1CCS(=O)(=O)C1 (centres unmarked) , output reported inhibition at 3 µM.
Result: > 95%

Task: Hello, please tell me recorded inhibition at 3 µM for this one: Cc1c(-c2ccc(Cl)cc2)c(C(=O)N2CCC(CO)C2)n(Cc2ccccc2)c1C(F)(F)F (centres unmarked)
Result: 75 to 95%

Task: Let me know recorded inhibition at 3 µM for Cc1c(-c2ccc(Cl)cc2)c(C(=O)N2CCC(S(C)(=O)=O)C2)n(Cc2ccccc2)c1C(F)(F)F (centres unmarked) , thanks.
Result: > 95%

Task: Supply reported inhibition at 3 µM belonging to this compound: `Cc1c(-c2ccc(F)c(Cl)c2)c(C(=O)N2CC(F)(F)C2)n(Cc2ccccc2)c1C(F)(F)F`
Result: 40 to 75%

Task: # return recorded inhibition at 3 µM for input Cc1c(-c2ccc(Cl)cc2F)c(C(=O)N(C)C2CCS(=O)(=O)C2)n(Cc2ccccc2)c1C(F)(F)F (centres unmarked)
Result: > 95%

Task: Kindly indicate its recorded inhibition at 3 µM. Item: `CC1(C)CN(C(=O)c2c(-c3ccc(Cl)cc3)cc(C(F)(F)F)n2Cc2ccccc2)CCN1`
Result: 75 to 95%

---

- TESTED_ON: Human CaV2.2 channels (Homo sapiens, UniProt Q00975)
- Construct: expressed in transfected cells
- Sequence (Q00975 whole entry): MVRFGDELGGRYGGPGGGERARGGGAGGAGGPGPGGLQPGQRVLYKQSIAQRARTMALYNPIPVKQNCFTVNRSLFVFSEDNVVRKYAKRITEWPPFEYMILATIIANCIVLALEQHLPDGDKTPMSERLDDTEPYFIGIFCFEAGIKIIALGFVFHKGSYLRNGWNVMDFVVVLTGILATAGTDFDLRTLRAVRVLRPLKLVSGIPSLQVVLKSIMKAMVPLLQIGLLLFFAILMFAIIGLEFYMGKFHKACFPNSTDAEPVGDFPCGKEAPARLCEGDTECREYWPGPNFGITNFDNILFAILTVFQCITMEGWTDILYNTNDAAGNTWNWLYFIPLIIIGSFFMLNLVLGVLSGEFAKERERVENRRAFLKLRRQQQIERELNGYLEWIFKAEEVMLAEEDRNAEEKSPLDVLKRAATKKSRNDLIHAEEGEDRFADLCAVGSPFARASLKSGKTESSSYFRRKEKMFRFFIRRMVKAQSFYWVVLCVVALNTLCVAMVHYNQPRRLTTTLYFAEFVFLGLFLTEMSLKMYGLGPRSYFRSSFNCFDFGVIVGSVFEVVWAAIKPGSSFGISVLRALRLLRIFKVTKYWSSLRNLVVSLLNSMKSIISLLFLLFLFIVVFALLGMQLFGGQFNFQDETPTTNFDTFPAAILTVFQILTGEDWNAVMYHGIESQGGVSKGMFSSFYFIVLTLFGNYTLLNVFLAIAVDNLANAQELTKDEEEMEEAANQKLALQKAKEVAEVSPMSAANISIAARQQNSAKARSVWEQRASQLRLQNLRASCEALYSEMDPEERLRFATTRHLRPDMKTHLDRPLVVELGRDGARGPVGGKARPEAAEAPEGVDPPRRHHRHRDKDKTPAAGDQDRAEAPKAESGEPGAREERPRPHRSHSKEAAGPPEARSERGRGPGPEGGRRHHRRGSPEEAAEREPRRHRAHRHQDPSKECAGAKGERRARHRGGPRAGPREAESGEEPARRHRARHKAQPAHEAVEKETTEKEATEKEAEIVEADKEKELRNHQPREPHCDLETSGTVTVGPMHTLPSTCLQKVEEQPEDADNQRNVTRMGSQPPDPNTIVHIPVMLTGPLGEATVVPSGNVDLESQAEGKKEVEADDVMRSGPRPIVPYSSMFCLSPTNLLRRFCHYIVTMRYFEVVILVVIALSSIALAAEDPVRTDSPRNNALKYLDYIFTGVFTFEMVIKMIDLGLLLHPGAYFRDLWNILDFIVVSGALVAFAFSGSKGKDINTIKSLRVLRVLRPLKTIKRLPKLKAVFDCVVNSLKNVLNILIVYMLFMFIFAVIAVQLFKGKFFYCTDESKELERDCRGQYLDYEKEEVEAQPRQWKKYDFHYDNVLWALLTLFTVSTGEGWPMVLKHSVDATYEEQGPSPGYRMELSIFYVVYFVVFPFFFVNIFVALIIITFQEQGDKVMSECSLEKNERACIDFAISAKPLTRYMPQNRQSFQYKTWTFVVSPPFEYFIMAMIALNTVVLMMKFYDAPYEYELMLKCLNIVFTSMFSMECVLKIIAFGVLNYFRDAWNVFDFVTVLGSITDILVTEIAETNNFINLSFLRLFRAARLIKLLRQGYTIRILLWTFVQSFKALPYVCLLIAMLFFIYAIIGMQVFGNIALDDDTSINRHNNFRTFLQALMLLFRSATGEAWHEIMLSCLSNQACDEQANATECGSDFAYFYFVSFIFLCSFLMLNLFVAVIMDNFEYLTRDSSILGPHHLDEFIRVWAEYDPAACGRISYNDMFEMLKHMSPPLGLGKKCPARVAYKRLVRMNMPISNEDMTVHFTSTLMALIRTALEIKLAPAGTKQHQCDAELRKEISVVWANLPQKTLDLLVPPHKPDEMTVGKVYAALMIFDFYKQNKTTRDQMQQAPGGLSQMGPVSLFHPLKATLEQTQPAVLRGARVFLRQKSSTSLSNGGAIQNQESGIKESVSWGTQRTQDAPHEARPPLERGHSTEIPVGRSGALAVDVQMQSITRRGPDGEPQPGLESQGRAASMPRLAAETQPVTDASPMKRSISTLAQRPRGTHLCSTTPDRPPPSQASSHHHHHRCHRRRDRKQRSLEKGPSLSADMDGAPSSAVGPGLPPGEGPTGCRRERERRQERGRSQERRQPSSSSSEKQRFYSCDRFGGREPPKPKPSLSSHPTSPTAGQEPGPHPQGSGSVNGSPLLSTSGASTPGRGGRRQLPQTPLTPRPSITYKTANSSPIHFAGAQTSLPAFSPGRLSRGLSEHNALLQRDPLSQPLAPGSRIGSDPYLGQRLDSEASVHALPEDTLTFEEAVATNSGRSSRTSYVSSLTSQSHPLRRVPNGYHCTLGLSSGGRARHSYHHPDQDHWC
- Sequence (P54289 25-1103, further chain): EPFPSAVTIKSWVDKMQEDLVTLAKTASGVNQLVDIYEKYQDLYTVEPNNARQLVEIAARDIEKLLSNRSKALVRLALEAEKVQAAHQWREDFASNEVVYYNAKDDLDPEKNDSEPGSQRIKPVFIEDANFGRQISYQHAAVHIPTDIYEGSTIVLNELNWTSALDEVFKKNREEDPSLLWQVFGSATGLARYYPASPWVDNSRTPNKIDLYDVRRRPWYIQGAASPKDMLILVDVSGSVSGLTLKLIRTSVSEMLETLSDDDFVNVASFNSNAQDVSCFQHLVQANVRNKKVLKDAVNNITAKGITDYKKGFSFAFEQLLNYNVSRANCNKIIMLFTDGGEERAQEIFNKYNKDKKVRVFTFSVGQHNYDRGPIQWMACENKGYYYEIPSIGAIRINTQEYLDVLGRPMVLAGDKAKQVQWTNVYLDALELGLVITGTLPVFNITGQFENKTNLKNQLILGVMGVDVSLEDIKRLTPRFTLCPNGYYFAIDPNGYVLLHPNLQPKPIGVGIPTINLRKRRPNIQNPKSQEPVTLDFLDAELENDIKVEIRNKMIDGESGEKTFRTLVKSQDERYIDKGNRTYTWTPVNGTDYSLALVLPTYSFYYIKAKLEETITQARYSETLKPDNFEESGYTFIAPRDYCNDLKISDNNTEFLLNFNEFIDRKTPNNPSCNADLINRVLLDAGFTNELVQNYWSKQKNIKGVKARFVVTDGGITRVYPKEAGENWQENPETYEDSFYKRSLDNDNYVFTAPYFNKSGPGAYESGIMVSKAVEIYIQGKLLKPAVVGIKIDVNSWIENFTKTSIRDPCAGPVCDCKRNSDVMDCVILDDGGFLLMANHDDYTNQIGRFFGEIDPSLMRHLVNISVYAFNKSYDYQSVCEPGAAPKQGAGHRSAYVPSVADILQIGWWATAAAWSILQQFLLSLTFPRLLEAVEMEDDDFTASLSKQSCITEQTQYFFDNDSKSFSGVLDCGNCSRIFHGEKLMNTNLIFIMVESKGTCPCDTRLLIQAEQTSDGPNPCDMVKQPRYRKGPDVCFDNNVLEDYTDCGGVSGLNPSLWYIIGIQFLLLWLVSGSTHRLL
- Sequence (P54284 whole entry, further chain): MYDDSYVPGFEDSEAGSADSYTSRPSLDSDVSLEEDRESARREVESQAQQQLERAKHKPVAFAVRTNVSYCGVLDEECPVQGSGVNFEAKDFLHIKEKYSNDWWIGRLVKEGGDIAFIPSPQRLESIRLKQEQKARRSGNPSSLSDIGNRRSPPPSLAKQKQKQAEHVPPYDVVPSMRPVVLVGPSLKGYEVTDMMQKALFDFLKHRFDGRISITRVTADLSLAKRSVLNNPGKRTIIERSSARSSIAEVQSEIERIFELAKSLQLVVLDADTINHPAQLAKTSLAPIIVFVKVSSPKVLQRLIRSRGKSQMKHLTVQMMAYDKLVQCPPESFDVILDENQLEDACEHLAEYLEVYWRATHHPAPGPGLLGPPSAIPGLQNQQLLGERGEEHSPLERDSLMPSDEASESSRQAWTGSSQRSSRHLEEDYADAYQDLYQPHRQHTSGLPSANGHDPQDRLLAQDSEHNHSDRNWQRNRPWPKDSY
- EXPERIMENTAL_DETAILS: Fluorescent assay for CaV2.2 channels using potassium depolarization to induce channel opening (FLIPR, Fluo-4)
- Assay type: cell-based
- CONDITION_DETAILS: 3 μM test compound, 30 mM KCl, HEK293 cells stably expressing human CaV2.2; read-out: %-Inhib (CaV2.2) @3 μM @30 mM KCl
Kindly state inhibition at 3 µM for each of the entries shown.

Task: State its inhibition at 3 µM: `Cc1c(-c2ccc(Cl)c(F)c2)c(C(=O)N(C)CC(C)(C)CO)n(Cc2ccccc2)c1C(F)(F)F`
Result: > 95%

Task: Please report inhibition at 3 µM for the following compound: CN(CC1CCOC1)C(=O)c1c(-c2ccc(Cl)cc2)cc(C(F)(F)F)n1Cc1ccccc1 (stereo not shown)
Result: > 95%

Task: Look up inhibition at 3 µM of `CN(CC(C)(C)CN)C(=O)c1c(-c2ccc(Cl)cc2)cc(C(F)(F)F)n1Cc1ccccc1` and report it.
Result: 75 to 95%

Task: Answer with the recorded inhibition at 3 µM for the compound listed here: `Cc1cnc(CN(C)C(=O)c2c(-c3ccc(Cl)cc3)c(C)c(C(F)(F)F)n2Cc2ccccc2)cn1`
Result: > 95%

Task: Check the records and state inhibition at 3 µM for `Cc1c(-c2ccc(OC(F)(F)F)cc2)c(C(=O)N(C)C2CCOCC2)n(Cc2ccccc2)c1C(F)(F)F`
Result: 75 to 95%

Task: Return the recorded inhibition at 3 µM value; entry: `CN(Cc1cnccn1)C(=O)c1c(-c2ccc(Cl)cc2)cc(C(F)(F)F)n1Cc1ccccc1`
Result: 75 to 95%

Task: Return inhibition at 3 µM for the following compound: `CCN(CCS(C)(=O)=O)C(=O)c1c(-c2ccc(Cl)cc2)cc(C(F)(F)F)n1Cc1ccccc1`
Result: > 95%

Task: Assign inhibition at 3 µM to the following record: `O=C1CN(C(=O)c2c(-c3ccc(Cl)cc3F)cc(C(F)(F)F)n2Cc2ccccc2)CCN1`
Result: 75 to 95%

Task: Supply recorded inhibition at 3 µM for `Cc1c(-c2ccc(Cl)cc2)c(C(=O)N2CC[S+]([O-])CC2)n(Cc2ccccc2)c1C(F)(F)F` here.
Result: > 95%

Task: Query inhibition at 3 µM for Cc1c(-c2ccc(Cl)cc2F)c(C(=O)N(C)CCC2CCCO2)n(Cc2ccccc2)c1C(F)(F)F (stereo not shown)
Result: > 95%

Task: Note down inhibition at 3 µM recorded for `Cc1c(-c2ccc(OC(F)(F)F)cc2)c(C(=O)N(C)CC(C)(C)CO)n(Cc2ccccc2)c1C(F)(F)F`
Result: 75 to 95%

Task: # return recorded inhibition at 3 µM for input `O=C(c1c(-c2ccc(Cl)cc2)cc(C(F)(F)F)n1Cc1ccccc1)N1CC(F)(F)C1`
Result: 75 to 95%

Task: Tell me its inhibition at 3 µM given `Cc1c(-c2ccc(C#N)cc2F)c(C(=O)N2CCOCC2)n(Cc2ccccc2)c1C(F)(F)F` as the entry.
Result: 75 to 95%

Task: Supply inhibition at 3 µM value. Item: `Cc1c(-c2ccc(Cl)cc2)c(C(=O)N2CC(S(C)(=O)=O)C2)n(Cc2ccccc2)c1C(F)(F)F`
Result: 75 to 95%

Task: Consider the compound `CN(C(=O)c1c(-c2ccc(Cl)cc2)cc(C(F)(F)F)n1Cc1ccccc1)C(C)(C)C` . State its measured inhibition at 3 µM.
Result: 75 to 95%

Task: Please give the documented inhibition at 3 µM of `Cc1c(-c2ccc(C(F)(F)F)cc2)c(C(=O)N(C)C2CCOCC2)n(Cc2ccccc2)c1C(F)(F)F`
Result: 75 to 95%
